Study system: human MC4-R (Homo sapiens)
Construct: expressed in transfected cells; host or cells: HEK293 T-REx (tetracycline-regulated, Invitrogen); cell line from Palatin Technologies with license from the University of Michigan
Experiment notes: cAMP functional assay in HEK-293 T-REx cells expressing human MC4-R, induced with doxycycline 0.1 ng/mL (low density)
Assay type: cell-based
Condition summary: HEK293-T-REx; maximal cAMP stimulation, NDP-α-MSH = 100%; doxycycline 0.1 ng/mL; averages of all comparable assays; read-out: Emax
Measured parameter: Emax (%)

(A) CC(=O)N[C@H](CCCNC(=N)N)C(=O)N[C@H]1CCCNC(=O)CC[C@@H](C(N)=O)NC(=O)[C@H](Cc2c[nH]c3ccccc23)NC(=O)[C@H](CCCNC(=N)N)NC(=O)[C@@H](Cc2ccccc2)NC(=O)[C@H](Cc2c[nH]cn2)NC1=O
(B) CC(=O)N[C@@H](CCCNC(=N)N)C(=O)N[C@H]1CCC(=O)NCCC[C@@H](C(N)=O)NC(=O)[C@H](Cc2c[nH]c3ccccc23)NC(=O)[C@H](CCCNC(=N)N)NC(=O)[C@@H](Cc2ccccc2)NC(=O)[C@H](CCS(C)(=O)=O)NC1=O
**Q:** // returns A or B , whichever has the lower Emax Write down the label attached to your selection.
**A:** B

(I) CC(=O)N[C@@H](CCCNC(=N)N)C(=O)N[C@H]1CCC(=O)NCCC[C@@H](C(N)=O)NC(=O)[C@H](Cc2c[nH]c3ccccc23)NC(=O)[C@H](CCCNC(=N)N)NC(=O)[C@@H](Cc2ccccc2)NC(=O)[C@H](CCCN)NC1=O
(II) CC(=O)N[C@@H](CCCNC(=N)N)C(=O)N[C@H]1CC(=O)NCCCC[C@@H](C(N)=O)NC(=O)[C@H](Cc2c[nH]c3ccccc23)NC(=O)[C@H](CCCNC(=N)N)NC(=O)[C@@H](Cc2ccccc2)NC(=O)[C@H](CCS(C)(=O)=O)NC1=O [reference compound]
(III) CC(=O)N[C@@H](CCCNC(=N)N)C(=O)N[C@H]1CC(=O)NCCCC[C@@H](C(N)=O)NC(=O)[C@H](Cc2c[nH]c3ccccc23)NC(=O)[C@H](CCCNC(=N)N)NC(=O)[C@@H](Cc2ccccc2)NC(=O)[C@@H]2CCCN2C1=O [reference compound]
**Q:** Sort ascending by Emax. Sort and list the labels as requested.
**A:** II, III, I

====

Study system: human MC4-R (Homo sapiens, UniProt P32245)
Construct: expressed in transfected cells; host or cells: HEK293 T-REx (tetracycline-regulated, Invitrogen); cell line from Palatin Technologies with license from the University of Michigan
Sequence (P32245 whole entry): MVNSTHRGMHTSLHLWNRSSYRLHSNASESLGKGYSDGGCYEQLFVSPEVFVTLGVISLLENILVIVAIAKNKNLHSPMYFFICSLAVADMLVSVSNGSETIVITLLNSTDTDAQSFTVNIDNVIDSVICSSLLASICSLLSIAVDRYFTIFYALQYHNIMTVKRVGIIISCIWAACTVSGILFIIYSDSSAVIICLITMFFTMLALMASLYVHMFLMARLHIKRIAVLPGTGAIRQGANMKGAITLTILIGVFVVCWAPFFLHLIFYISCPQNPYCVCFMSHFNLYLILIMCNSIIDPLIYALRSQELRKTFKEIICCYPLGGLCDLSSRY
Experiment notes: cAMP functional assay in HEK-293 T-REx cells expressing human MC4-R, induced with doxycycline 0.1 ng/mL (low density)
Format: cell-based
Condition summary: HEK293-T-REx; maximal cAMP stimulation, NDP-α-MSH = 100%; doxycycline 0.1 ng/mL; averages of all comparable assays; read-out: Emax
Bridge positions count the residues as written; N and C are the ends. Square brackets hold non-standard residues; d marks the D form. Peptide text beside a SMILES is read from it. Orn = NCCC[C@H](N)C(=O)O
Measured parameter: Emax (%)

CC(=O)N[C@@H](CCCNC(=N)N)C(=O)N[C@H]1CCCNC(=O)CC[C@@H](C(N)=O)NC(=O)[C@H](Cc2c[nH]c3ccccc23)NC(=O)[C@H](CCCNC(=N)N)NC(=O)[C@@H](Cc2ccccc2)NC(=O)[C@H](Cc2c[nH]cn2)NC1=O [No. 38] (Ac-R[Orn]H[dF]RWE-NH2; lactam 2-7): 84

(a) CC(=O)N[C@@H](CCCNC(=N)N)C(=O)N[C@H]1CC(=O)NCCCC[C@@H](C(N)=O)NC(=O)[C@H](Cc2c[nH]c3ccccc23)NC(=O)[C@H](CCCNC(=N)N)NC(=O)[C@@H](Cc2ccccc2)NC(=O)[C@@H]2C[C@@H](N)CN2C1=O [reference compound]
(b) CC(=O)N[C@H](CCCNC(=N)N)C(=O)N[C@H]1CC(=O)NCCCC[C@@H](C(N)=O)NC(=O)[C@H](Cc2c[nH]c3ccccc23)NC(=O)[C@H](CCCNC(=N)N)NC(=O)[C@@H](Cc2ccccc2)NC(=O)[C@H](Cc2c[nH]cn2)NC1=O [reference compound]
**Q:** Field: entry with larger Emax (options a / b ). Write down the label attached to your selection.
**A:** b
(b: 89%, a: 61%)

====

Study system: human MC4-R (Homo sapiens)
Construct: expressed in transfected cells; host or cells: HEK293 T-REx (tetracycline-regulated, Invitrogen); cell line from Palatin Technologies with license from the University of Michigan
Experiment notes: Competitive inhibition binding assay with [I125]-NDP-α-MSH or Eu-NDP-α-MSH, membranes of HEK-293 cells expressing recombinant hMC4-R
Condition summary: human MC4-R; averages of all comparable assays; read-out: Ki
Measured parameter: Ki (nM)

CC(=O)N[C@@H](CCCNC(=N)N)C(=O)N[C@H]1CCC(=O)NCCC[C@@H](C(N)=O)NC(=O)[C@H](Cc2c[nH]c3ccccc23)NC(=O)[C@H](CCCNC(=N)N)NC(=O)[C@@H](Cc2ccccc2)NC(=O)[C@H](CC(N)=O)NC1=O [No. 34]: 6

(P) CCCC[C@H](NC(C)=O)C(=O)N[C@H]1CCCNC(=O)CC[C@@H](C(=O)O)NC(=O)[C@H](Cc2c[nH]c3ccccc23)NC(=O)[C@H](CCCNC(=N)N)NC(=O)[C@@H](Cc2ccccc2)NC(=O)[C@H](Cc2c[nH]cn2)NC1=O [No. 35]
(Q) CC(=O)N[C@@H](CCCNC(=N)N)C(=O)N[C@H]1CCC(=O)NCCC[C@@H](C(=O)O)NC(=O)[C@H](Cc2c[nH]c3ccccc23)NC(=O)[C@H](CCCNC(=N)N)NC(=O)[C@@H](Cc2ccccc2)NC(=O)[C@H](COCc2ccccc2)NC1=O [No. 17]
**Q:** // returns P or Q , whichever has the lower Ki Write down the label attached to your selection.
**A:** P

(A) CC(=O)NCCC[C@@H]1NC(=O)[C@@H](NC(=O)[C@H](CCCNC(=N)N)NC(C)=O)CCC(=O)NCCC[C@@H](C(N)=O)NC(=O)[C@H](Cc2c[nH]c3ccccc23)NC(=O)[C@H](CCCNC(=N)N)NC(=O)[C@@H](Cc2ccccc2)NC1=O [No. 33]
(B) CCCC[C@H](NC(C)=O)C(=O)N[C@H]1CCCNC(=O)CC[C@@H](C(N)=O)NC(=O)[C@H](Cc2c[nH]c3ccccc23)NC(=O)[C@H](CCCNC(=N)N)NC(=O)[C@@H](Cc2ccccc2)NC(=O)[C@H](Cc2c[nH]cn2)NC1=O [No. 36]
(C) CC(=O)N[C@@H](CCCNC(=N)N)C(=O)N[C@H]1CCC(=O)NCCC[C@@H](C(N)=O)NC(=O)[C@H](Cc2c[nH]c3ccccc23)NC(=O)[C@H](CCCNC(=N)N)NC(=O)[C@@H](Cc2ccccc2)NC(=O)[C@H](CCC(N)=O)NC1=O [No. 12]
**Q:** Order the items by recorded Ki; the first position goes to the largest value. Sort and list the labels as requested.
**A:** A, C, B

====

Study system: human MC4-R (Homo sapiens)
Construct: expressed in transfected cells; host or cells: HEK293 T-REx (tetracycline-regulated, Invitrogen); cell line from Palatin Technologies with license from the University of Michigan
Experiment notes: cAMP functional assay in HEK-293 T-REx cells expressing human MC4-R, induced with doxycycline 0.1 ng/mL (low density)
Format: cell-based
Condition summary: HEK293-T-REx; maximal cAMP stimulation, NDP-α-MSH = 100%; doxycycline 0.1 ng/mL; averages of all comparable assays; read-out: Emax
Measured parameter: Emax (%)

CC(=O)N[C@@H](CCCNC(=N)N)C(=O)N[C@H]1CC(=O)NCCCC[C@@H](C(N)=O)NC(=O)[C@H](Cc2c[nH]c3ccccc23)NC(=O)[C@H](CCCNC(=N)N)NC(=O)[C@@H](Cc2ccccc2)NC(=O)[C@H](Cc2c[nH]cn2)NC1=O [reference compound]: 83
CC(=O)N[C@@H](CCCNC(=N)N)C(=O)N[C@H]1CC(=O)NCCCC[C@@H](C(=O)O)NC(=O)[C@H](Cc2c[nH]c3ccccc23)NC(=O)[C@H](CCCNC(=N)N)NC(=O)[C@@H](Cc2ccccc2)NC(=O)[C@H](CCCNC(=N)N)NC1=O [reference compound]: 75

====

Study system: human MC4-R (Homo sapiens, UniProt P32245)
Construct: expressed in transfected cells; host or cells: HEK293 T-REx (tetracycline-regulated, Invitrogen); cell line from Palatin Technologies with license from the University of Michigan
Experiment notes: Competitive inhibition binding assay with [I125]-NDP-α-MSH or Eu-NDP-α-MSH, membranes of HEK-293 cells expressing recombinant hMC4-R
Condition summary: human MC4-R; averages of all comparable assays; read-out: Ki
pKi: −log10 of the molar value.
Measured parameter: pKi

Here's what some known entries look like.
CC(=O)N[C@@H](CCCNC(=N)N)C(=O)N[C@H]1CC(=O)NCCCC[C@@H](C(N)=O)NC(=O)[C@H](Cc2c[nH]c3ccccc23)NC(=O)[C@H](CCCNC(=N)N)NC(=O)[C@@H](Cc2ccccc2)NC(=O)[C@H](CCCN)NC1=O [reference compound]: 8.15
CC(=O)N[C@@H](CCCNC(=N)N)C(=O)N[C@H]1CC(=O)NCCCC[C@@H](C(N)=O)NC(=O)[C@H](Cc2c[nH]c3ccccc23)NC(=O)[C@H](CCCNC(=N)N)NC(=O)[C@@H](Cc2ccccc2)NC(=O)[C@H](CCS(C)(=O)=O)NC1=O [reference compound]: 8.15

(I) CC(=O)N[C@@H](CCCNC(=N)N)C(=O)N[C@H]1CCC(=O)NCCC[C@@H](C(N)=O)NC(=O)[C@H](Cc2c[nH]c3ccccc23)NC(=O)[C@H](CCCNC(=N)N)NC(=O)[C@@H](Cc2ccccc2)NC(=O)[C@H](CCCN)NC1=O
(II) CC(=O)N[C@@H](CCCNC(=N)N)C(=O)N[C@H]1CC(=O)NCCCC[C@@H](C(N)=O)NC(=O)[C@H](Cc2c[nH]c3ccccc23)NC(=O)[C@H](CCCNC(=N)N)NC(=O)[C@@H](Cc2ccccc2)NC(=O)[C@@H]2C[C@@H](N)CN2C1=O [reference compound]
**Q:** Field: entry with larger pKi (options I / II ). Write down the label attached to your selection.
**A:** II
